Where these numbers come from: ChEMBL document CHEMBL4011621

# System: Poliovirus 3
# Test Summary: Antiviral activity against Human poliovirus 3 infected in human HeLa cells assessed as protection against virus induced cytopathic effect after 2 days by MTT assay
# Type: functional, cell-based
# Measurement Setup: Enterovirus C, 48 h
Measurement Name: EC50

| Item Smiles | EC50 |
| --- | --- |
| CCOC(=O)c1cc2ccc(O)cc2s1 | > 46.9 µM |

q: # returns recorded EC50 (system: Poliovirus 3) for "CNC(=O)c1cc(Oc2ccc3c(C)c(C(=O)N(C)C)sc3c2)ccn1"
a: > 44.4 µM

q: # returns recorded EC50 (system: Poliovirus 3) for "CNC(=O)c1cc(Oc2ccc3c(C)c(C(=O)O)sc3c2)ccn1"
a: > 100 µM

q: # returns recorded EC50 (system: Poliovirus 3) for "CCOC(=O)c1sc2cc(Oc3ccccc3)ccc2c1C"
a: > 47.6 µM
